# Test Summary: Quantitative High-Throughput drug screen in 47 multiple myeloma cell lines against the NCATS MIPE library collection: EJM_DSMZ cell viability assay (AID 1918926; also: nearly all actives have a fitted effect of over 30% in size)
# Run Conditions: EJM myeloma cell viability, CellTiter-Glo ATP, 48 h; series mostly up to 45.8 µM
Results filed as inconclusive are left out. Active and inactive are the calls of the source. Calls follow the shape of the dose curve; as a rule, active = well fitted cell-killing curve with a large enough effect; inconclusive = small, poorly fitted or top-dose-only effect, or effect the other way; inactive = no such curve, though single readings can be large or run the other way.
Please reply with one of these outcomes: class 1 = active, class 0 = inactive

Q: Any idea what this test logged for `O=C(N[C@H](CO)[C@H](O)c1ccc([N+](=O)[O-])cc1)C(Cl)Cl` ?
Ans: class 0

Q: Any idea what this test logged for `NC(N)=NC(N)=NCCc1ccccc1` ?
Ans: class 1

Q: Any idea what this test logged for `COc1cnc(NS(=O)(=O)c2ccc(N)cc2)nc1` ?
Ans: class 0

Q: Any idea what this test logged for CCN1CCCC1CNC(=O)c1cc(S(N)(=O)=O)ccc1OC (stereo unspecified) ?
Ans: class 0

Q: Any idea what this test logged for `Cc1ccnc2c1NC(=O)c1cccnc1N2C1CC1` ?
Ans: class 0

Q: Any idea what this test logged for `C[C@]12C=CC(=O)C=C1CC[C@@H]1[C@@H]2C(=O)C[C@@]2(C)[C@H]1CC[C@]2(O)C(=O)CO` ?
Ans: class 0
